- protocol.details: Vibrio cholerae motility inhibitors, OD read-out (AID 588778)
- details: stronger effect = higher value, concentration not given here
The whole screen tested about 10,000 compounds, of which fewer than 10 were called active. Not all results are given here.
result.type: inhibition (%)
Write it as a number; the unit % goes unstated.

Reference set (5 entries):
| compound | unit.string | inhibition |
| --- | --- | --- |
| C=CCn1c(SCC(=O)Nc2c(C)cc(I)cc2C)nnc1-c1ccco1 | % | 5 |
| OCCNC(=S)NC1CCCCC1 | % | -10.2 |
| OCCNC/C=C/c1c(F)c(F)c(F)c(F)c1F | % | 8.12 |
| CCOC(=O)C1(NC(=S)N(CC)CC)Sc2cc(C)ccc2NC1=O (stereo not drawn) | % | 12.1 |
| Cc1cc(Br)c(NC(=O)CSc2ccc(Cl)cc2)cc1C | % | -1.15 |

query: Could you tell me which inhibition is on file for O=C(CS(=O)(=O)Cc1ccccc1)N1CCN(Cc2ccc3c(c2)OCO3)CC1 ?
result: 12.5

query: Could you tell me which inhibition is on file for CC(C)(C)OC(=O)NNC(=O)Nc1ccccc1C(F)(F)F ?
result: 15.3

query: Could you tell me which inhibition is on file for Cn1nnc2cc(NC(=O)NCc3ccco3)ccc21 ?
result: 9.79

query: Could you tell me which inhibition is on file for Cc1ccccc1C(=O)N1CCN(c2nc(N3CCCC3)nc(N3CCCC3)n2)CC1 ?
result: -0.47

query: Could you tell me which inhibition is on file for Cc1cccc(C(=O)Nc2ccc(I)cc2C(=O)N2CCCC2)c1 ?
result: -0.8

----------
- protocol.details: Vibrio cholerae motility inhibitors, OD read-out (AID 588778)
- details: measured here: bacterial viability at 10 ug/mL, stronger effect = higher value
In all, about 10,000 compounds went through this assay and fewer than 10 were called active. Not all results are given here.
The following molecules are listed with their measured inhibition values.
Write it as a number; the unit % goes unstated.

| molecule | inhibition, % |
| --- | --- |
| CCOC(=O)c1ccc(NC(=O)COc2ccc3oc(=O)cc(C)c3c2)cc1 | -0.82 |
| COc1cc2c(NCc3ccccc3)cc(O)c(CC(=O)Nc3ccc(Cl)cc3)c2cc1OC | 1.46 |
| CCSc1ncc(Cl)c(C(=O)Nc2c(C)n(C)n(-c3ccccc3)c2=O)n1 | -0.4 |

query: Could you tell me which inhibition is on file for CCOc1cc(C(=S)N2CC(C)OC(C)C2)cc(I)c1OCC(=O)N1CCCC1 (centres undefined) ?
result: 5.69

----------
The following molecules are listed with their measured inhibition values.
- protocol.details: Vibrio cholerae motility inhibitors, OD read-out (AID 588778)
- details: measured here: bacterial viability at 10 ug/mL, stronger effect = higher value
Screen size: about 10,000 compounds; fewer than 10 were called active. Not all results are given here.
Write it as a number; the unit % goes unstated.

| molecule | inhibition, % |
| --- | --- |
| CCCC(=O)c1ccc(N2CCN(C(=O)c3ccccc3Br)CC2)c(F)c1 | 4.06 |
| CC1(C(=O)NN2CCOCC2)CC1(Cl)Cl (stereo not given) | -3.31 |
| COc1ccc2cnn(-c3ccccc3)c(=O)c2c1OC | 4.55 |
| Cc1c(NC(=O)c2nn3c(C(F)(F)F)c4c(nc3c2Cl)-c2ccccc2CC4)c(=O)n(-c2ccccc2)n1C | -0.51 |
| COc1cccc(/C=C(\C#N)c2ccccc2)c1OC(C)C | -2.34 |
| Cc1ccc(C(C)C)c(OCCSc2nc3ccccc3n2CC(O)CO)c1 (stereo not given) | -5.04 |
| CCC(=O)OCC12COC3c4ccccc4OC(C)(CC1C)C3C2C (stereo not given) | -10.6 |
| CSCCC(C(=O)O)n1c(-c2ccc3ccccc3n2)n[nH]c1=S (stereo not given) | -4.1 |
| Cc1nnc(SCC(=O)Nc2ccc(Cl)cn2)s1 | -0.63 |
| Cc1cc(=O)[nH]c2c1cnn2Cc1ccccc1 | 17.8 |

query: Could you tell me which inhibition is on file for CC(NC(=O)c1ccco1)c1ccc(I)cc1 (stereo not given) ?
result: 23.3

query: Could you tell me which inhibition is on file for O=C(O)CCn1c2ccccc2c2ccccc21 ?
result: -1.8

query: Could you tell me which inhibition is on file for CCc1cc(C(=O)OC)c(NC(=O)c2cc(Br)cs2)s1 ?
result: 1.94

query: Could you tell me which inhibition is on file for Cc1c(C(=O)c2ccccc2)c(=O)n(C)c(=O)n1C ?
result: 1.24

query: Could you tell me which inhibition is on file for COc1ccc(C(=O)N(Cc2ccc(C)o2)C2CCS(=O)(=O)C2)cc1Cl (stereo not given) ?
result: 1.08

----------
- protocol.details: Vibrio cholerae motility inhibitors, OD read-out (AID 588778)
- details: stronger effect = higher value, concentration not given here
Out of some 10,000 compounds screened, fewer than 10 were called active. Only a sample is shown.
The following molecules are listed with their measured inhibition values.
Write it as a number; the unit % goes unstated.

| molecule | inhibition / % |
| --- | --- |
| COC(=O)C1=C(C)N=C2SCCC(=O)N2C1/C=C/c1ccccc1 (stereo not drawn) | -20.3 |
| CCn1ccc(C(=O)Nc2ccc(C(F)(F)F)cc2Cl)n1 | -7.69 |
| O=C(Cn1cnc2ccccc2c1=O)c1ccc(Br)cc1 | -17.8 |
| O=C(Cc1ccccc1Cl)c1ccc(O)c(O)c1O | 12.7 |
| c1ccc2nc3c(nc2c1)CCc1nonc1-3 | 0.045 |

query: Could you tell me which inhibition is on file for C[C@@H](NC(=O)C1CCN(Cc2cccc(Cl)c2)CC1)c1ccccc1 ?
result: 19.5

query: Could you tell me which inhibition is on file for Cc1ccc(S(=O)(=O)Nc2ccc(C(=O)Nc3nccs3)cc2)cc1 ?
result: 4.81

query: Could you tell me which inhibition is on file for CC12CCC(C(=O)Nc3ccc(SC(F)F)cc3)(CC1=O)C2(C)C (stereo not drawn) ?
result: 7.67

----------
The following compounds are listed with their measured inhibition values.
- protocol.details: Vibrio cholerae motility inhibitors, OD read-out (AID 588778)
- details: measured here: bacterial viability at 10 ug/mL, stronger effect = higher value
The whole screen tested about 10,000 compounds, of which fewer than 10 were called active. Not all results are given here.
Write it as a number; the unit % goes unstated.

| compound | inhibition (%) |
| --- | --- |
| Cn1nc([N+](=O)[O-])nc1Sc1nnc(-c2cccnc2)o1 | 15.6 |

query: Could you tell me which inhibition is on file for COc1ccc(N(C)NC(=O)Cc2ccccc2)cc1 ?
result: 4.27

query: Could you tell me which inhibition is on file for CCCCCOc1ccc(NC(=O)C(=O)NCCN2CCOCC2)cc1 ?
result: -7.64

query: Could you tell me which inhibition is on file for Cc1cc(N2C(=O)CC(Cc3ccc(Cl)cc3)C2=O)no1 (stereo not given) ?
result: -6.9

query: Could you tell me which inhibition is on file for Cc1ccc(NC(=O)c2ccccc2NC(=O)Cc2ccc(Cl)cc2)cc1C ?
result: 19.3

query: Could you tell me which inhibition is on file for O=C(c1ccc(Sc2nnc(Cc3ccccc3)n2-c2ccccc2)c([N+](=O)[O-])c1)N1CCCC1 ?
result: 7.99

query: Could you tell me which inhibition is on file for CC(=O)N(Cc1cc2ccc(C)cc2[nH]c1=O)c1ccc(C)cc1C ?
result: -2.06

query: Could you tell me which inhibition is on file for O=C(CSc1nnnn1-c1ccccc1)c1cc2ccccc2oc1=O ?
result: -4.29

query: Could you tell me which inhibition is on file for O=[N+]([O-])c1cccc(N2CCOCC2)c1 ?
result: 4.88

query: Could you tell me which inhibition is on file for COc1ccc(NC(=S)N2CCCC2C(=O)N2CCCC2)cc1 (stereo not given) ?
result: 7.73

query: Could you tell me which inhibition is on file for O=[N+]([O-])c1cccc(CN2CCC(N3CCCC3)CC2)c1 ?
result: -10.2

----------
- protocol.details: Vibrio cholerae motility inhibitors, OD read-out (AID 588778)
- details: measured here: bacterial viability at 10 ug/mL, stronger effect = higher value
Fewer than 10 of roughly 10,000 compounds were called active. These entries were drawn from the full list.
The following molecules are listed with their measured inhibition values.
Write it as a number; the unit % goes unstated.

Reference set (4 entries):
| molecule | inhibition [%] |
| --- | --- |
| CC(C)CNC(=S)NNC(=O)CC(C)O (stereo not given) | 22.3 |
| CCOC(=O)c1ccc(CNC(=O)CCC(=O)O)cc1 | -10.3 |
| O=C(CSc1nc2ccccc2s1)NNC(=S)Nc1ccc(F)c(Cl)c1 | 18.2 |
| Cc1ccc(S(=O)(=O)Nc2ccc(C(=O)Nc3nccs3)cc2)cc1 | -2.49 |

query: Could you tell me which inhibition is on file for Cn1nnc2cc(NC(=O)NCc3ccco3)ccc21 ?
result: 6.21
